# measuredTarget: recombinant human LTA4 hydrolase (rhLTA4H) (Homo sapiens, UniProt P09960)
# Construct: made in house; host or cells: Spodoptera frugiperda (Sf-9) cells, recombinant baculovirus (pFastBac1)
# Sequence (P09960 whole entry): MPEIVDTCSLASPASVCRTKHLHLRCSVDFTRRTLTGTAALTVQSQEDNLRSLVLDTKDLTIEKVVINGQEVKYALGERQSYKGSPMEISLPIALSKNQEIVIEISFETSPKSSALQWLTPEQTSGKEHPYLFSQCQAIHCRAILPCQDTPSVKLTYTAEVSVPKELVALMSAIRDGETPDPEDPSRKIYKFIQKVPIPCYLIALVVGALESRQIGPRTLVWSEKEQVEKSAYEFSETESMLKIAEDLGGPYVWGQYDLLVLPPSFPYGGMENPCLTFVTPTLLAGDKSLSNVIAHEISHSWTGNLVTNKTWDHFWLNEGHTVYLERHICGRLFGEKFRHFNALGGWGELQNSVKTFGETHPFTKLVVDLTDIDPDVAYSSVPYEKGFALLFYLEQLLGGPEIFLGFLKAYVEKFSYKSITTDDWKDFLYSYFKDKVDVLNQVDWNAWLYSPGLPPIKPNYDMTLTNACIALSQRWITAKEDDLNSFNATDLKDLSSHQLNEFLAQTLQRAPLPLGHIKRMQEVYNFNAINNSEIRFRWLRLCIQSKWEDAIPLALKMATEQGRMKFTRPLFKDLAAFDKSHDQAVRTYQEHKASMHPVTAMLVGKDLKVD
# procedureSummary: Recombinant human LTA4 hydrolase assay for LTA4 hydrolase inhibitor activity
# Type: biochemical
# assayContext: rhLTA4H, LTA4 substrate, LTB4 by immunoassay; single determination or average; read-out: IC50
Would you mind telling me the reported IC50 of each entry?
Give bare numbers, in nM.

Recorded results for 2 molecules are shown here.
{"molecule": "c1cnc2nc(Oc3ccc(CN4CCOCC4)cc3)sc2c1 [Example 86]", "unitsLabel": "nM", "IC50": 12}
{"molecule": "NC(=O)N1C[C@@H]2C[C@H]1CN2CCOc1ccc(Oc2nc3cccnc3s2)cc1 [Example 21]", "unitsLabel": "nM", "IC50": 160}

Query molecule follows.
Please provide the recorded IC50 for CC(=O)N1[C@@H]2CC[C@H]1C[C@H](NCc1ccc(Oc3nc4ncc(C)cc4s3)cc1)C2 [Example 181] , tested on recombinant human LTA4 hydrolase (rhLTA4H) (Homo sapiens, UniProt P09960).
332

* * *

Would you mind telling me the reported inhibition at 30 mg/kg of each entry?
# Tested on: ex vivo stimulated LTB4 production
# procedureSummary: Murine arachidonic acid-induced inflammation model: ex vivo stimulated LTB4 production (% Inh. LTB4)
# assayContext: Mus musculus; female Balb/c mice, 30 mg/kg oral gavage; blood taken 3 h after arachidonic acid, ex vivo A23187 stimulation; number of determinations in parentheses
Answers are plain numbers, in %.

Recorded results for 3 compounds are shown here.
{"inputSmiles": "c1cnc2nc(Oc3ccc(OCCN4CCCCC4)cc3)sc2c1", "value": 68}
{"inputSmiles": "NC(=O)N1C[C@H]2C[C@@H]1CN2Cc1ccc(Oc2nc3ncccc3s2)cc1", "value": 78.6}
{"inputSmiles": "CC(=O)N[C@H]1C[C@H]2CC[C@@H](C1)N2Cc1ccc(Oc2nc3ncccc3s2)cc1", "value": 81}

I would be grateful if you could provide inhibition at 30 mg/kg for each of the following entries.
1. CC(C)(O)C1CCN(Cc2ccc(Oc3nc4ncccc4s3)cc2)CC1
2. CC(=O)N1C[C@@H]2C[C@H]1CN2Cc1ccc(Oc2nc3ncc(Cl)cc3s2)cc1
3. CCN(CCO)CCc1ccc(Oc2nc3ncccc3s2)cc1

[79.5, 72, 71.2]

* * *

Would you mind telling me the reported IC50 of each entry?
# measuredTarget: recombinant human LTA4 hydrolase (rhLTA4H) (Homo sapiens, UniProt P09960)
# Construct: made in house; host or cells: Spodoptera frugiperda (Sf-9) cells, recombinant baculovirus (pFastBac1)
# procedureSummary: Recombinant human LTA4 hydrolase assay for LTA4 hydrolase inhibitor activity
# Assay type: biochemical
# assayContext: rhLTA4H, LTA4 substrate, LTB4 by immunoassay; single determination or average; read-out: IC50
Numbers only, in nM.

Recorded results for 2 molecules are shown here.
{"molecule": "c1cnc2nc(Oc3ccc(CCN4CCC(c5ccncc5)CC4)cc3)sc2c1 [Example 65]", "measuredTarget": "recombinant human LTA4 hydrolase (rhLTA4H) (Homo sapiens, UniProt P09960)", "unitsLabel": "nM", "IC50": 9.6}
{"molecule": "c1cncc(OC2CCN(Cc3ccc(Oc4nc5ncccc5s4)cc3)CC2)c1 [Example 98]", "measuredTarget": "recombinant human LTA4 hydrolase (rhLTA4H) (Homo sapiens, UniProt P09960)", "unitsLabel": "nM", "IC50": 6}

Query molecule follows.
Could you tell me which IC50 is on file for O=C1C[C@@H](O)CN1C1CCN(CCOc2ccc(Oc3nc4ncccc4s3)cc2)CC1 [Example 270] ?
10
